log10 of IC50: recorded values
Test system: Naegleria fowleri trophozoites (Carter NF69 strain, ATCC 30215)
Test: In vitro anti-N. fowleri activity, trophozoite viability
Type: cell-based
Details: Naegleria fowleri, ATCC30215, 48 h, read-out: N. fowleri (IC50 ±SD, μM), trophozoites, 0–400 μM, 37°C, 48 h; mean±SD of 3 independent experiments
On a log10 scale: recorded IC50, unit µM.

Input line: Report log10 of IC50 from Naegleria fowleri trophozoites (Carter NF69 strain, ATCC 30215) testing of O=c1c(-c2ccc(O)cc2)coc2cc(O)cc(O)c12 [Genistein, genistein]
Output line: 2.20

Input line: Report log10 of IC50 on Naegleria fowleri trophozoites (Carter NF69 strain, ATCC 30215) for this entry: O=C(/C=C/c1ccc(O)c(O)c1)O[C@H](Cc1ccc(O)c(O)c1)C(=O)O [Rosmarinic acid, rosmarinic acid]
Output line: 1.89

Input line: Provide the reported log10 of IC50 (system: Naegleria fowleri trophozoites (Carter NF69 strain, ATCC 30215)) for C=C1C(=O)O[C@@H]2/C=C(\C)CC/C=C(\C)CC[C@@H]12 [Costunolide, costunolide]
Output line: 1.82

Input line: Specify log10 of IC50 for CCCCCCCCCCCCCCCCOP(=O)([O-])OCC[N+](C)(C)C [Miltefosine, miltefosine, reference compound] , system Naegleria fowleri trophozoites (Carter NF69 strain, ATCC 30215).
Output line: 2.18

Input line: Consider the compound CC[C@H]1OC(=O)[C@H](C)[C@@H](O[C@H]2C[C@@](C)(OC)[C@@H](O)[C@H](C)O2)[C@H](C)[C@@H](O[C@@H]2O[C@H](C)C[C@H](N(C)C)[C@H]2O)[C@](C)(O)C[C@@H](C)CN(C)[C@H](C)[C@@H](O)[C@]1(C)O [Azithromycin, Azithromycin dihydrate, reference compound] tested on Naegleria fowleri trophozoites (Carter NF69 strain, ATCC 30215); state its log10 of IC50.
Output line: 1.17

====

Assay: Cytotoxicity against C6 glial cells
Format: cell-based, rat
Conditions: rat, C6 glial cells
Each item that follows carries a reported CC50.

[
  {
    "COMPOUND": "CCCCCCCCCCCCCCCCOP(=O)([O-])OCC[N+](C)(C)C [Miltefosine, miltefosine, reference compound]",
    "CC50": "> 245 µM"
  },
  {
    "COMPOUND": "O=c1cc(-c2ccc(O)c(O)c2)oc2cc(O)cc(O)c12",
    "CC50": "> 350 µM"
  },
  {
    "COMPOUND": "O=c1c(-c2ccc(O)cc2)coc2cc(O)cc(O)c12",
    "CC50": "104 µM"
  },
  {
    "COMPOUND": "COc1cc(/C=C/C(O)=C/C(=O)/C=C/c2ccc(O)cc2)ccc1O",
    "CC50": "> 296 µM"
  },
  {
    "COMPOUND": "C[C@@H]1O[C@@H](Oc2c(-c3ccc(O)cc3)oc3cc(O)cc(O)c3c2=O)[C@H](O)[C@H](O)[C@H]1O",
    "CC50": "> 230 µM"
  },
  {
    "COMPOUND": "O=c1cc(-c2ccc(O)cc2)oc2cc(O)cc(O)c12",
    "CC50": "243 µM"
  },
  {
    "COMPOUND": "Oc1ccc(/C=C/c2cc(O)cc(O)c2)cc1",
    "CC50": "221 µM"
  }
]

Alright, here's another compound for you.
Input line: For the compound O=c1c(O)c(-c2ccc(O)cc2)oc2cc(O)cc(O)c12 , give its measured CC50 value.
Output line: 334 µM
